System: IA-LM
Experimental protocol: relative viability (nuclei count vs DMSO), 5 days (fraction); higher = more cells survive
Study conditions: first compound 0.01581 µM
Below, each entry is listed alongside its reported relative viability.
Hey, just send me the number, nothing else.

INSERT INTO assay_data (compound, readout_type, measurement) VALUES
  ('Nc1ccn([C@@H]2O[C@H](CO)[C@@H](O)[C@@H]2O)c(=O)n1 [Cytarabine] + CS(=O)(=O)N1CCN(Cc2cc3nc(-c4cccc5[nH]ncc45)nc(N4CCOCC4)c3s2)CC1 [Pictilisib] (partner 1 µM)', 'relative viability', 0.336);

Returns the measured relative viability for the input compound. Input: Nc1ccn([C@@H]2O[C@H](CO)[C@@H](O)[C@@H]2O)c(=O)n1 [Cytarabine] + CS(=O)(=O)CCNCc1ccc(-c2ccc3ncnc(Nc4ccc(OCc5cccc(F)c5)c(Cl)c4)c3c2)o1 [Lapatinib] (partner 2 µM) 0.729

Need relative viability of COc1cc2nccc(Oc3ccc(NC(=O)Nc4cc(C)on4)c(Cl)c3)c2cc1OC [Tivozanib] + COc1cc2c(Oc3ccc(NC(=O)C4(C(=O)Nc5ccc(F)cc5)CC4)cc3F)ccnc2cc1OCCCN1CCOCC1 [Foretinib] (partner 0.25 µM) , thanks. 1.15

Request the reported relative viability associated with COc1cc2nccc(Oc3ccc(NC(=O)Nc4cc(C)on4)c(Cl)c3)c2cc1OC [Tivozanib] + CS(=O)(=O)N1CCN(Cc2cc3nc(-c4cccc5[nH]ncc45)nc(N4CCOCC4)c3s2)CC1 [Pictilisib] (partner 1 µM) 0.366

Return reported relative viability; argument: Nc1ccn([C@@H]2O[C@H](CO)[C@@H](O)[C@@H]2O)c(=O)n1 [Cytarabine] + O=C(CCCCCCC(=O)Nc1ccccc1)NO [Vorinostat] (partner 1 µM) 1.03

Which value of relative viability has been reported for Nc1ccn([C@@H]2O[C@H](CO)[C@@H](O)[C@@H]2O)c(=O)n1 [Cytarabine] + C[C@]1(O)C[C@@H](c2nc(-c3ccc4ccc(-c5ccccc5)nc4c3)c3c(N)nccn32)C1 [Linsitinib] (partner 1 µM) in the records? 0.763
